Experiment: Kinetic solubility
Conditions: kinetic from dmso stock, Solubility, kinetic solubility; n = 1 or average of n = 2-3
readout: solubility (µM)

Answered examples (5):
query: For Cc1cc2nccc(C(=O)NCC(=O)N3CSC[C@H]3C#N)c2cc1N1CCOCC1 [Example 10] , write its solubility.
result: 270

query: For N#C[C@@H]1CSCN1C(=O)CNC(=O)c1ccnc2ccc(N3CC(C(F)(F)F)C3)cc12 [Example 26] , write its solubility.
result: 15

query: For N#C[C@@H]1CSCN1C(=O)CNC(=O)c1ccnc2ccc(N3CC4CC4C3)cc12 (some centres unmarked) [Example 206] , write its solubility.
result: 26

query: For CC1(C)CN(c2ccc3nccc(C(=O)NCC(=O)N4CSC[C@H]4C#N)c3c2)CCC1(F)F [Example 38] , write its solubility.
result: 33

query: For CC1(F)CCN(c2ccc3nccc(C(=O)NCC(=O)N4CSC[C@H]4C#N)c3c2)CC1 [Example 34] , write its solubility.
result: 770

(I) N#C[C@@H]1CSCN1C(=O)CNC(=O)c1ccnc2ccc(N3CC(COC(F)(F)F)C3)cc12 [Example 130]
(II) CC1CN(c2ccc3nccc(C(=O)NCC(=O)N4CSC[C@H]4C#N)c3c2)C1 [Example 25]
query: # min-compare on solubility between I and II Your answer should be the label of the entry you select.
result: I
(I: 16 µM, II: 130 µM)
